# assay.name: Plasma pharmacokinetics of N-acetyl-leucine enantiomers after oral dosing of mice
# run.conditions: male, BALB/c, mouse, plasma, oral, 100 mg/kg, concentration in plasma, 6.00 h after p.o. N-Acetyl-L-Leucine 100 mg/kg; individual mice
Reported concentration at 6 h values follow for various compounds
Entry rule: numbers only, all in ng/mL.

- compound: "CC(=O)N[C@@H](CC(C)C)C(=O)O [N-Acetyl-L-Leucine, N-acetyl-L-leucine]"
  concentration at 6 h, ng/mL: 222

[in] Can you look up the measured concentration at 6 h of CC(=O)N[C@H](CC(C)C)C(=O)O [N-Acetyl-D-Leucine, N-acetyl-D-leucine] for me?
[out] 23.3

###

# assay.name: Plasma pharmacokinetics of N-acetyl-leucine enantiomers after oral dosing of mice
# run.conditions: male, BALB/c, mouse, plasma, oral, 100 mg/kg, concentration in plasma, 2.00 h after p.o. N-Acetyl-L-Leucine 100 mg/kg; individual mice
reported.metric: concentration at 2 h (ng/mL)
Entry rule: numbers only, all in ng/mL.

[in] Can you look up the measured concentration at 2 h of CC(=O)N[C@H](CC(C)C)C(=O)O for me?
[out] 33.4

###

# assay.name: Plasma pharmacokinetics of N-acetyl-leucine enantiomers after oral dosing of mice
# run.conditions: male, BALB/c, mouse, plasma, oral, 100 mg/kg, concentration in plasma, 0.15 h after p.o. N-Acetyl-L-Leucine 100 mg/kg; individual mice
reported.metric: concentration at 0.15 h (ng/mL)
Entry rule: numbers only, all in ng/mL.

[in] Can you look up the measured concentration at 0.15 h of CC(=O)N[C@H](CC(C)C)C(=O)O for me?
[out] 582

###

# assay.name: Skeletal muscle concentration of enantiomers after oral dosing of mice
# Type: in vivo, male BALB/c mice
# run.conditions: male, BALB/c, mouse, skeletal muscle, oral, 100 mg/kg, 2.00 h after p.o. N-Acetyl-L-Leucine 100 mg/kg; individual mice
reported.metric: concentration at 2 h (ng/mL)
Entry rule: numbers only, all in ng/mL.

[in] Can you look up the measured concentration at 2 h of CC(=O)N[C@H](CC(C)C)C(=O)O [N-Acetyl-D-Leucine, N-acetyl-D-leucine] for me?
[out] 112
